As shown below, each of these compounds has a reported pIC50 value.
target: BRD4 Bromodomain 1 (BRD4 BD1) (Homo sapiens); construct: 44-168 and BRD4 BD2; experiment: AlphaScreen binding assay, BRD4 BD1; conditions: His-tagged BRD4 BD1 50 nM, biotinylated H4 (1-21) K5/8/12/16 tetra-acetylated peptide 50 nM, compounds listed under IC50 range headings
pIC50: −log10 of the molar value.

CC(=O)N1c2ccc(-c3cnn(C4CC4)c3)c(OC3CCCC3)c2CC[C@@H]1C 6.00 to 7.00
CNC(=O)COc1c(-c2cnn(C3COC3)c2)ccc2c1CC[C@H](C)N2C(C)=O 5.00 to 6.00
C[C@H]1CCc2c(ccc(C3CC3)c2Oc2ccccc2)N1C(=O)C1CC1 6.00 to 7.00
COC(=O)N1c2ccc(-c3csc(C(N)=O)n3)c(OC3CCC3)c2CC[C@@H]1C 6.00 to 7.00
COC(=O)N1c2ccc(-c3cnn(C4CCNCC4)c3)c(Oc3cccc(C)n3)c2CC[C@@H]1C 6.00 to 7.00

Request the reported pIC50 associated with COC(=O)N1c2ccc(-c3cnn(C4CCNCC4)c3)c(Oc3ncccc3C#N)c2CC[C@@H]1C
5.00 to 6.00

Here is the next compound: CC(=O)N1c2ccc(-c3ccc(N(C)S(C)(=O)=O)cc3)c(OCC(=O)N(C)C)c2CC[C@@H]1C
5.00 to 6.00

Similarly, CC(=O)N1c2ccc(-c3cnn(C4CC4)c3)c(Oc3ncccc3C#N)c2CC[C@@H]1C ?
6.00 to 7.00

Next up: CC(=O)N1c2ccc(-c3cnn(C4CC4)c3)c(OCCC3COC3)c2CC[C@@H]1C
5.00 to 6.00

Further, for COC(=O)N1c2ccc(-c3cnn(C4CCNCC4)c3)c(Oc3ccccc3)c2CC[C@@H]1C ?
6.00 to 7.00

Repeat with CC(=O)N1c2ccc(-c3cnn(C4CC4)c3)c(Oc3ncccc3C)c2CC[C@@H]1C
5.00 to 6.00

What do we get for CC(=O)N1c2ccc(-c3cnn(C4CCNCC4)c3)c(Oc3ncccc3C#N)c2CC[C@@H]1C ?
6.00 to 7.00

Entry to check: COC(=O)N1c2ccc(-c3cnn(C4CCNCC4)c3)c(Oc3ccc(F)cc3F)c2CC[C@@H]1C
6.00 to 7.00

Try this compound too: CC(=O)N1c2ccc(-c3cnn(C4CCNCC4)c3)c(Oc3ccc(F)c(F)c3)c2CC[C@@H]1C
6.00 to 7.00

Continue with CC(=O)N1c2ccc(-c3cnn(C4CC4)c3)c(Oc3ncccc3C(F)(F)F)c2CC[C@@H]1C
6.00 to 7.00

And what about the compound COC(=O)N1c2ccc(-c3csc(C4(F)CNC4)n3)c(OC3CCC3)c2CC[C@@H]1C ?
5.00 to 6.00
